Origin of measurements: PubChem BioAssay (NCI)

Tested on: OVCAR-8 ovarian
protocol.summary: NCI-60 one-dose screen, 48 h
condition.description: 10 µM unless noted
Compounds without any hit were thinned out: in the full panel of roughly 83,000, 20% have a hit. Active and inactive are the calls of the source. How the source made its calls: active means growth percent below 10; inactive means the rest.
Thanks in advance; please answer with one of these: active, inactive

Example entries and their recorded answers appear below.
compound: C=CCOc1c(Br)cc(Br)cc1Br
category.label: inactive
//
compound: Cc1ccc(N2C3c4ccccc4N(S(=O)(=O)c4ccc(C)cc4)C2c2ccccc2N3S(=O)(=O)c2ccc(C)cc2)cc1
category.label: inactive
//
compound: CC(=O)Nc1ccc(Cl)cc1Cl
category.label: inactive
//
compound: Cc1nc2ccc(Nc3nc(N4CCOCC4)nc(N4CCN(C)CC4)n3)cc2n1Cc1ccccc1
category.label: inactive
//
compound: CC1CCN(Cc2ccc(NC(=O)c3cc4ccc5cccnc5c4[nH]3)cc2)CC1
category.label: inactive

Prompt: What did the test return for Cc1ccc(NC(=O)c2[nH]c(SCCN(C)C)nc2-c2ccc(F)cc2)cc1C#Cc1cnc2cccnn12 ?
Response: active

Prompt: What did the test return for O=[N+]([O-])c1ccccc1CN1CCCCC1 ?
Response: inactive

Prompt: What did the test return for Cc1ccc(/C=C/C(=N/N=C(N)N)c2ccccc2)cc1 ?
Response: inactive

###

System: HS 578T breast
protocol.summary: NCI-60 one-dose screen, 48 h (100 = growth as untreated, 0 = no growth, -100 = all killed)
condition.description: 10 µM
This is part of a sample that, as a whole, favours compounds with a hit. Of some 83,000 tested, about 20% had one in any assay.
property.measured: growth (%)
Write the number in % without appending the unit.

// worked examples, growth included
compound: O=C(NCC(c1ccsc1)N1CCCCCC1)c1ccc(C(F)(F)F)cc1 (stereo unspecified)
property.measured: growth
measurement.unit: %
value.measured: 102

compound: CCOc1c(C#N)c2c(N)ncnc2n1C1OC(CO)C(O)C1O (stereo unspecified)
property.measured: growth
measurement.unit: %
value.measured: 50.9

compound: Clc1ccc(Nc2ncnc3c2sc2ncccc23)c(Cl)c1
property.measured: growth
measurement.unit: %
value.measured: 95.8

Prompt: Checklist item: growth tested on HS 578T breast, entry C=CCn1c(C)nc2cc(Nc3nc(N4CCCC4)nc4nc[nH]c34)ccc21 , value?
Response: -0.0485

Prompt: Checklist item: growth tested on HS 578T breast, entry CCOCC(O)(c1ccc(Cl)cc1)c1ccc(Cl)cc1 , value?
Response: 109

Prompt: Checklist item: growth tested on HS 578T breast, entry C[C@]12CCc3nc(Nc4ccc(O)cc4)sc3C1=CC[C@@H]1[C@@H]2CC[C@]2(C)/C(=N/NC(N)=S)CC[C@@H]12 , value?
Response: -4.57

###

System: MALME-3M melanoma
protocol.summary: NCI-60 one-dose screen, 48 h (100 = growth as untreated, 0 = no growth, -100 = all killed)
condition.description: 10 µM unless noted
Compounds without any hit were thinned out: in the full panel of roughly 83,000, 20% have a hit.
// reported growth for each item listed
Write the number in % without appending the unit.

// worked examples, growth included
compound: Nc1nc(N)c2cc(CNc3ccc(Cl)c(Cl)c3)ccc2n1
growth / %: 47.1
//
compound: COc1cc2c(cc1OC)C(=O)OC2
growth / %: 124
//
compound: CCCOC(=O)C1c2cc3c(cc2CC(C)C1C(=O)OCCC)OCO3 (stereo unspecified)
growth / %: 104
//
compound: Cc1cc(C)c2c(NC(=O)Nc3ccc(Cl)c(Cl)c3)n[nH]c2n1
growth / %: 90.4
//
compound: Cc1cc(N=Nc2ccc(-c3ccc(N=Nc4ccc(O)c(C(=O)O)c4)cc3)cc2)c(N)c(N=Nc2ccc(C(=O)O)cc2)c1N
growth / %: 95.2
//
compound: COC(=O)c1cc2oc(/C=N/NC(=O)c3cc4oc(-c5cccc(C(F)(F)F)c5)cc4[nH]3)cc2n1Cc1ccccc1
growth / %: 6.57
//
compound: O=C(Oc1c(Cl)c(Cl)c(Cl)c(Cl)c1Cl)C1CCCN1C(=O)OCc1ccccc1 (stereo unspecified)
growth / %: 72.3
//
compound: CN1CCN(Cc2ccc(NC(=O)c3cncc(C#Cc4ccc(N)nc4)c3)cc2C(F)(F)F)CC1
growth / %: -70.3

Prompt: Entry Cc1cc(O)ccc1C1=NN(c2ccc(S(N)(=O)=O)cc2)C(=O)CC1 has what growth?
Response: 45.3

Prompt: Entry Oc1ccc(-c2cnc(-c3ccccc3)[nH]2)c(O)c1 has what growth?
Response: 76.5
